# target: Dual specificity mitogen-activated protein kinase kinase 5 (Homo sapiens)
# Sequence (Q13163 whole entry): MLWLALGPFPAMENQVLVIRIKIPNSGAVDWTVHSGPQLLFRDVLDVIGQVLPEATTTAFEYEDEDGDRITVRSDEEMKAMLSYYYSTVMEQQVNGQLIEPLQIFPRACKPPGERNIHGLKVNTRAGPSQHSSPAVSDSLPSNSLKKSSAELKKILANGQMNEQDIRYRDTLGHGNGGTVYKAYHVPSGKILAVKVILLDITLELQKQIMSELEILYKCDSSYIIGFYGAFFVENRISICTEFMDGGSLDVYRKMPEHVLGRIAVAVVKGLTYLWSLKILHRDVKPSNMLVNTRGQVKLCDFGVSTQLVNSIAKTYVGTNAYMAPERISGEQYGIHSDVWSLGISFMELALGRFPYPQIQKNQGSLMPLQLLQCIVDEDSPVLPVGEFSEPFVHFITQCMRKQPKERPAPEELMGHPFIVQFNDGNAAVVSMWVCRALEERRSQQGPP
# assayRemarks: Inhibition of MEK5 (unknown origin) by LanthaScreen assay
pIC50: −log10 of the molar value.
outcomeMeasure: pIC50

Record "C=CC(=O)N1CC(Oc2nn(C(C)(C)C)c3ncnc(N)c23)C1" , field pIC50: < 5.00

====

# target: Epidermal growth factor receptor (Homo sapiens, UniProt P00533, L858R)
# Sequence (P00533 25-1210 L858R limits assumed): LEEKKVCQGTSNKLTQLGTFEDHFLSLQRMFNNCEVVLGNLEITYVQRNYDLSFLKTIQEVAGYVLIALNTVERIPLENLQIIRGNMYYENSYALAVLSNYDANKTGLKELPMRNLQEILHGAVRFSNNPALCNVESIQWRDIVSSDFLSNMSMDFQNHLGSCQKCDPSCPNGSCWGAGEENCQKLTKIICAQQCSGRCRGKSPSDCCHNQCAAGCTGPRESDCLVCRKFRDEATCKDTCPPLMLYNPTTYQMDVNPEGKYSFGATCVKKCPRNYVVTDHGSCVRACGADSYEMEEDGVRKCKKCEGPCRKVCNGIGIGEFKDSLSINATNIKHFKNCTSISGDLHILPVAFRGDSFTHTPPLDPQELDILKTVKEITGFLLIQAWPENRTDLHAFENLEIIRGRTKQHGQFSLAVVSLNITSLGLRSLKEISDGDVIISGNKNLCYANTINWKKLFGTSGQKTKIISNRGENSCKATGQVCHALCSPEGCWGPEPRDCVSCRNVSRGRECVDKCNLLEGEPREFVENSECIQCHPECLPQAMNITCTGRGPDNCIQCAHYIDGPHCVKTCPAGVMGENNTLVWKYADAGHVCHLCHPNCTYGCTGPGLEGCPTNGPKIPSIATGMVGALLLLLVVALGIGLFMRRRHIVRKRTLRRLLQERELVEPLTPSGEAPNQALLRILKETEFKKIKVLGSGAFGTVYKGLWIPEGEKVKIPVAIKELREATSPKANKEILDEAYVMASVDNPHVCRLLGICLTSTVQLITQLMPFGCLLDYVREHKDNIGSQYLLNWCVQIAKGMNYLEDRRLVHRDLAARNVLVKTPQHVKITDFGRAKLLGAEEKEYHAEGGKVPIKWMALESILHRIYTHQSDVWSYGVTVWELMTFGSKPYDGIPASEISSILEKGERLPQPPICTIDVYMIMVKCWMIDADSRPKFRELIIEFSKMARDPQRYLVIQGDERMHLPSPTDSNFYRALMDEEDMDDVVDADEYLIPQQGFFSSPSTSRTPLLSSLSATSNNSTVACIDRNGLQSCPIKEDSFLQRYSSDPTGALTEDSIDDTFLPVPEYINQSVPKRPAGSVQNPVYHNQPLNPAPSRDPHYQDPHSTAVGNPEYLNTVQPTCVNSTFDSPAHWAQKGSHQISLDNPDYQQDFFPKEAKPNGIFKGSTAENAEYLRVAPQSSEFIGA
# assayRemarks: Inhibition of EGFR L858R mutant (unknown origin) harboring cysteine at alphaD-1 position by LanthaScreen assay
outcomeMeasure: IC50 (nM)
# output: bare number, implied unit nM

# IC50 measured on Epidermal growth factor receptor (Homo sapiens, UniProt P00533, L858R) for item "C=CC(=O)N1CC(Oc2nn(C(C)(C)C)c3ncnc(N)c23)C1" = 242

====

Listed here are molecules together with their documented IC50.
# assayRemarks: cells
# reportedConditions: Mus musculus, Ba/F3 EGFR-L858R, 72 h
# Description: Antiproliferative activity against mouse Ba/F3 EGFR-L858R cells assessed as inhibition of cell proliferation measured after 3 days by CellTiter-Glo assay
# output: bare number, implied unit nM

C=CC(=O)N1CCC(Oc2nn(C(C)(C)C)c3ncnc(N)c23)C1 (centres undefined) | 2400
C=CC(=O)N1CCCC(Oc2nn(C(C)(C)C)c3ncnc(N)c23)C1 (centres undefined) | 10600
C=CC(=O)N1CCC(Oc2nn(C(C)(C)C)c3ncnc(N)c23)CC1 | 604

Then there is this molecule:
Record "C=CC(=O)Nc1cc(Nc2nccc(-c3cn(C)c4ccccc34)n2)c(OC)cc1N(C)CCN(C)C" , field IC50: 2.4

====

# target: Tyrosine-protein kinase BTK (Homo sapiens, UniProt Q06187)
# Sequence (Q06187 whole entry): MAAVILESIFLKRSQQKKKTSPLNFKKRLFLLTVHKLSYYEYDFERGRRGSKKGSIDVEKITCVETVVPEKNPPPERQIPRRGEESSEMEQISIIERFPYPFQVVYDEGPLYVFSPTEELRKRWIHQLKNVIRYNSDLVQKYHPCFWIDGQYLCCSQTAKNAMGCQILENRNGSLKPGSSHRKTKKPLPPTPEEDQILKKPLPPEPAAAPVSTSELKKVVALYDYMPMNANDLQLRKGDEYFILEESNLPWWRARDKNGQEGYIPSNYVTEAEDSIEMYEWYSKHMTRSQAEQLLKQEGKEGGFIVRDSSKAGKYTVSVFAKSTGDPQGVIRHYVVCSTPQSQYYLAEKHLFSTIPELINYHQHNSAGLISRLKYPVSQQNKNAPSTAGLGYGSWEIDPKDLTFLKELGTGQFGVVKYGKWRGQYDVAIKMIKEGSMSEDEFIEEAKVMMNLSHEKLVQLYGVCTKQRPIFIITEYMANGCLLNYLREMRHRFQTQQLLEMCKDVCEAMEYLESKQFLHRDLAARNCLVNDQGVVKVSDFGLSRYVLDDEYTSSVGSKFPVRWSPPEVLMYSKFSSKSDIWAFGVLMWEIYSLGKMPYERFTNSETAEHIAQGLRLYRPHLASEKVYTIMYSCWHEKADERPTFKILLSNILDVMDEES
# assayRemarks: Inhibition of BTK (unknown origin) harboring cysteine at alphaD-1 position by LanthaScreen assay
outcomeMeasure: pIC50
Reminder that pIC50 is minus the log10 of a molar concentration.

# pIC50 measured on Tyrosine-protein kinase BTK (Homo sapiens, UniProt Q06187) for item "C=CC(=O)N1CC(Oc2nn(C(C)(C)C)c3ncnc(N)c23)C1" = 6.98

====

# target: Tyrosine-protein kinase Blk (Homo sapiens)
# Sequence (P51451 whole entry): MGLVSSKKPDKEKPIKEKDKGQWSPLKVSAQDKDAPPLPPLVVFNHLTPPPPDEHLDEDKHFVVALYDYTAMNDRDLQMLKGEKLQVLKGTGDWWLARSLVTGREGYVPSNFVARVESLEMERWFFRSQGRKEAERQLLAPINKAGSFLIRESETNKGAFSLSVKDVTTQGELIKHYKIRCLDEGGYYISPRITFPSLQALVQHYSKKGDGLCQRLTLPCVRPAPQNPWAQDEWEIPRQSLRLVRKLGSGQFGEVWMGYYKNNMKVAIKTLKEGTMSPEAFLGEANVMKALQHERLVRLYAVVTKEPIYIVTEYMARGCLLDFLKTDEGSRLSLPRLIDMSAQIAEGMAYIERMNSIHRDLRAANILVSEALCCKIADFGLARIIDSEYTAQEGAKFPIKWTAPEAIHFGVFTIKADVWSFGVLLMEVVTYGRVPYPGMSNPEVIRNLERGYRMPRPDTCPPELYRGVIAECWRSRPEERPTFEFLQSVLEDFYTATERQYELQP
# assayRemarks: Inhibition of BLK (unknown origin) harboring cysteine at alphaD-1 position by LanthaScreen assay
outcomeMeasure: IC50

# IC50 measured on Tyrosine-protein kinase Blk (Homo sapiens) for item "CCC(=O)N1CC(Oc2nn(C(C)(C)C)c3ncnc(N)c23)C1" = > 10 µM

Values were extracted from ChEMBL document CHEMBL5528037.
